// provenance: patent US8604046B2

TEST SYSTEM: rhesus H3 receptor (Macaca mulatta, UniProt Q865E1)
Sequence (Q865E1 1-445): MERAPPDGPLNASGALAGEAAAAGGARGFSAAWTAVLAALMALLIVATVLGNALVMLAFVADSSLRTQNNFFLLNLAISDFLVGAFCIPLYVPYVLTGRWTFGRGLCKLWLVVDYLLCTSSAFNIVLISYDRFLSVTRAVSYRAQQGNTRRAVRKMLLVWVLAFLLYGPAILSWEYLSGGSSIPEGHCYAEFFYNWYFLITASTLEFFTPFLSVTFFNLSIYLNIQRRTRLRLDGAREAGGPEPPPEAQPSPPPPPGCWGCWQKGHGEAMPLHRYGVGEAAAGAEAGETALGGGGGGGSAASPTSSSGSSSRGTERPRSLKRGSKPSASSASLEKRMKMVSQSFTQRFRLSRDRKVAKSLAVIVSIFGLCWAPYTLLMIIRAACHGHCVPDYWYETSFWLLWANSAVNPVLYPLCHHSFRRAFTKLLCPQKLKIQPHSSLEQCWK
EXPERIMENT NOTES: GTPγS radioligand binding assay, inhibition of rhesus H3 constitutive functional activity (inverse agonism)
Assay type: biochemical, rhesus monkey (Macacca Mulatta)
Parameters: concentration or dose not given beside the values
COND: rhesus H3 cell membranes, relative to basal levels
Quick rule: Inverse Agonism: % inhibition of Basal GTPγS binding in Rhesus H3 of at least -20% means True, below that means False.

{"columns": ["COMPOUND", "LABEL"],
 "data": [
  ["C[C@H]1CCCN1C1CCN(c2ccc(N3CCC4(CCN(S(=O)(=O)c5ccccc5)CC4)C3=O)cc2)CC1 [Example 50]", "False"],
  ["C[C@H]1CCCCN1[C@H]1CCN(c2ccc(N3CCC4(CCN(C(=O)OC(C)(C)C)CC4)C3=O)c(C(F)(F)F)c2)C1 [Example 42]", "True"],
  ["Cc1cc(N2CC[C@@H](N3CCC[C@@H]3C)C2)ccc1N1CCC2(CCN(C(=O)c3ccc(OC(F)(F)F)cc3)CC2)C1=O [Example 17]", "True"],
  ["Cc1cc(N2CC[C@H](N3CCC[C@H]3C)C2)ccc1N1CCC2(CCNCC2)C1=O.Cl [Example 8]", "False"],
  ["Cc1cc(N2CC[C@H](N3CCC[C@H]3C)C2)ccc1N1CCC2(CCN(CC3CCCC3)CC2)C1=O [Example 10]", "False"],
  ["C[C@H]1CCCN1[C@H]1CCN(c2ccc(N3CCCC4(CCN(C(=O)c5ccccc5)CC4)C3=O)cc2)C1 [Example 28]", "True"],
  ["C[C@H]1CCCN1[C@H]1CCN(c2ccc(N3CCC4(CCN(C(=O)c5ccccc5)CC4)C3=O)c(C(F)(F)F)c2)C1 [Example 63]", "True"],
  ["Cc1cc(N2CCC(N3CCCC3C)C2)ccc1N1CCC2(CCN(C(=O)OC(C)(C)C)CC2)C1=O (stereo not shown) [Example 5]", "True"],
  ["C[C@H]1CCCN1[C@H]1CCN(c2ccc(N3CCC4(CCN(Cc5ccco5)CC4)C3=O)c(C(F)(F)F)c2)C1 [Example 66]", "True"],
  ["C[C@H]1CCCCN1[C@H]1CCN(c2ccc(N3CCC4(CCN(C(=O)C5CCCC5)CC4)C3=O)c(C(F)(F)F)c2)C1 [Example 55]", "False"],
  ["Cc1cc(N2CC[C@@H](N3CCC[C@H]3C)C2)ccc1N1CCC2(CCNCC2)C1=O.Cl [Example 7]", "False"],
  ["C[C@H]1CCCN1[C@H]1CCN(c2ccc(N3CCCC4(CCN(C(=O)C5CCCCC5)CC4)C3=O)c(F)c2)C1 [Example 30]", "False"],
  ["C[C@H]1CCCN1[C@H]1CCN(c2ccc(N3CCC4(CCN(C(=O)Cc5ccccc5)CC4)C3=O)c(C(F)(F)F)c2)C1 [Example 60]", "True"],
  ["C[C@H]1CCCCN1[C@H]1CCN(c2ccc(N3CCC4(CCN(C(=O)OC(C)(C)C)CC4)C3=O)c(F)c2)C1 [Example 43]", "True"],
  ["C[C@H]1CCCN1[C@H]1CCN(c2ccc(N3CCCC4(CCN(Cc5ccco5)CC4)C3=O)c(F)c2)C1 [Example 37]", "True"]
]}

---

TEST SYSTEM: rhesus H3 receptor (Macaca mulatta)
EXPERIMENT NOTES: GTPγS radioligand binding assay, inhibition of rhesus H3 constitutive functional activity (inverse agonism)
Type: biochemical, rhesus monkey (Macacca Mulatta)
Parameters: concentration or dose not given beside the values
COND: rhesus H3 cell membranes, relative to basal levels
Catalogue of compounds with associated Inverse Agonism: % inhibition of Basal GTPγS binding in Rhesus H3
PROPERTY MEASURED: Inverse Agonism: % inhibition of Basal GTPγS binding in Rhesus H3

{"columns": ["CHEM SMILES", "VALUE MEASURED"],
 "data": [
  ["C[C@H]1CCCN1C1CCN(c2ccc(N3CCC4(CCNCC4)C3=O)c(F)c2)CC1.Cl", "−24%"],
  ["C[C@H]1CCCN1[C@H]1CCN(c2ccc(N3CCCC4(CCN(C(=O)c5ccc(F)cc5)CC4)C3=O)cc2)C1", "−17%"],
  ["C[C@H]1CCCN1C1CCN(c2ccc(N3CCC4(CCN(CC5CCCC5)CC4)C3=O)c(F)c2)CC1", "−21%"],
  ["C[C@H]1CCCN1C1CCN(c2ccc(N3CCC4(CCN(C(=O)OC(C)(C)C)CC4)C3=O)cc2)CC1", "−25%"]
]}

---

TEST SYSTEM: rhesus H3 receptor (Macaca mulatta, UniProt Q865E1)
EXPERIMENT NOTES: GTPγS radioligand binding assay, inhibition of rhesus H3 constitutive functional activity (inverse agonism)
Format: biochemical, rhesus monkey (Macacca Mulatta)
Parameters: concentration or dose not given beside the values
COND: rhesus H3 cell membranes, relative to basal levels
PROPERTY MEASURED: Inverse Agonism: % inhibition of Basal GTPγS binding in Rhesus H3

{"columns": ["COMPOUND", "VALUE MEASURED"],
 "data": [
  ["C[C@H]1CCCCN1[C@H]1CCN(c2ccc(N3CCC4(CCNCC4)C3=O)c(F)c2)C1.Cl [Example 49]", "−22%"],
  ["C[C@H]1CCCN1C1CCN(c2ccc(N3CCC4(CCN(C(=O)C5CCCCC5)CC4)C3=O)c(F)c2)CC1 [Example 52]", "−24%"],
  ["Cc1cc(N2CC[C@@H](N3CCC[C@H]3C)C2)ccc1N1CCC2(CCN(C(=O)OC(C)(C)C)CC2)C1=O [Example 2]", "−30%"],
  ["C[C@H]1CCCN1[C@H]1CCN(c2ccc(N3CCC4(CCN(C(=O)c5ccc6ccccc6c5)CC4)C3=O)c(C(F)(F)F)c2)C1 [Example 62]", "−19%"]
]}

---

TEST SYSTEM: rhesus H3 receptor (Macaca mulatta, UniProt Q865E1)
pKi: −log10 of the molar value.
Catalogue of compounds with associated pKi
PROPERTY MEASURED: pKi

{"columns": ["COMPOUND", "TEST SYSTEM", "PROPERTY MEASURED", "VALUE MEASURED"],
 "data": [
  ["Cc1cc(N2CC[C@H](N3CCC[C@@H]3C)C2)ccc1N1CCCC2(CCN(C(=O)OC(C)(C)C)CC2)C1=O", "rhesus H3 receptor (Macaca mulatta, UniProt Q865E1)", "pKi", 8.17],
  ["C[C@H]1CCCCN1[C@H]1CCN(c2ccc(N3CCC4(CCN(C(=O)C5CCOCC5)CC4)C3=O)cc2)C1", "rhesus H3 receptor (Macaca mulatta, UniProt Q865E1)", "pKi", 8.48],
  ["C[C@H]1CCCN1[C@H]1CCN(c2ccc(N3CCCC4(CCN(C(=O)c5ccccc5)CC4)C3=O)cc2)C1", "rhesus H3 receptor (Macaca mulatta, UniProt Q865E1)", "pKi", 9.30],
  ["Cc1cc(N2CC[C@@H](N3CCC[C@@H]3C)C2)ccc1N1CCC2(CCN(C(=O)OC(C)(C)C)CC2)C1=O", "rhesus H3 receptor (Macaca mulatta, UniProt Q865E1)", "pKi", 8.15],
  ["C[C@H]1CCCN1C1CCN(c2ccc(N3CCC4(CCN(CC5CC5)CC4)C3=O)c(F)c2)CC1", "rhesus H3 receptor (Macaca mulatta, UniProt Q865E1)", "pKi", 10.40],
  ["Cc1cc(N2CCC(N3CCCC3C)C2)ccc1N1CCC2(CCN(C(=O)c3ccc(OC(F)(F)F)cc3)CC2)C1=O (stereo not shown)", "rhesus H3 receptor (Macaca mulatta, UniProt Q865E1)", "pKi", 8.21],
  ["Cc1cc(N2CC[C@H](N3CCC[C@@H]3C)C2)ccc1N1CCCC2(CCN(CC3CCCCC3)CC2)C1=O", "rhesus H3 receptor (Macaca mulatta, UniProt Q865E1)", "pKi", 9.70],
  ["C[C@H]1CCCN1C1CCN(c2ccc(N3CCC4(CCNCC4)C3=O)c(C(F)(F)F)c2)CC1.Cl [Example 45, Hydrochloride]", "rhesus H3 receptor (Macaca mulatta, UniProt Q865E1)", "pKi", 9.82],
  ["Cc1cc(N2CC[C@H](N3CCC[C@@H]3C)C2)ccc1N1CCC2(CCN(C(=O)OC(C)(C)C)CC2)C1=O", "rhesus H3 receptor (Macaca mulatta, UniProt Q865E1)", "pKi", 7.37],
  ["Cc1cc(N2CC[C@H](N3CCC[C@@H]3C)C2)ccc1N1CCCC2(CCN(C(=O)c3ccoc3)CC2)C1=O", "rhesus H3 receptor (Macaca mulatta, UniProt Q865E1)", "pKi", 8.80],
  ["Cc1cc(N2CCC(N3CCCC3C)C2)ccc1N1CCC2(CCN(C(=O)OC(C)(C)C)CC2)C1=O (stereo not shown)", "rhesus H3 receptor (Macaca mulatta, UniProt Q865E1)", "pKi", 7.74],
  ["C[C@H]1CCCN1[C@H]1CCN(c2ccc(N3CCC4(CCN(C(=O)c5ccc6ccccc6c5)CC4)C3=O)c(C(F)(F)F)c2)C1", "rhesus H3 receptor (Macaca mulatta, UniProt Q865E1)", "pKi", 8.09],
  ["C[C@H]1CCCN1[C@H]1CCN(c2ccc(N3CCC4(CCN(C(=O)Cc5ccccc5)CC4)C3=O)c(C(F)(F)F)c2)C1", "rhesus H3 receptor (Macaca mulatta, UniProt Q865E1)", "pKi", 6.84],
  ["C[C@H]1CCCN1[C@H]1CCN(c2ccc(N3CCC4(CCNCC4)C3=O)c(C(F)(F)F)c2)C1.Cl [Example 69, Hydrochloride]", "rhesus H3 receptor (Macaca mulatta, UniProt Q865E1)", "pKi", 10.05],
  ["Cc1cc(N2CC[C@H](N3CCC[C@@H]3C)C2)ccc1N1CCC2(CCNCC2)C1=O", "rhesus H3 receptor (Macaca mulatta, UniProt Q865E1)", "pKi", 7.96],
  ["C[C@H]1CCCCN1[C@H]1CCN(c2ccc(N3CCC4(CCN(C(=O)OC(C)(C)C)CC4)C3=O)c(F)c2)C1", "rhesus H3 receptor (Macaca mulatta, UniProt Q865E1)", "pKi", 8.37],
  ["C[C@H]1CCCCN1[C@H]1CCN(c2ccc(N3CCC4(CCN(C(=O)OC(C)(C)C)CC4)C3=O)cc2)C1", "rhesus H3 receptor (Macaca mulatta, UniProt Q865E1)", "pKi", 8.25],
  ["C[C@H]1CCCN1C1CCN(c2ccc(N3CCC4(CCN(C(=O)OC(C)(C)C)CC4)C3=O)cc2)CC1", "rhesus H3 receptor (Macaca mulatta, UniProt Q865E1)", "pKi", 11.10],
  ["C[C@H]1CCCCN1[C@H]1CCN(c2ccc(N3CCC4(CCN(C(=O)C5CCCC5)CC4)C3=O)c(C(F)(F)F)c2)C1", "rhesus H3 receptor (Macaca mulatta, UniProt Q865E1)", "pKi", 8.68],
  ["Cc1cc(N2CC[C@@H](N3CCC[C@@H]3C)C2)ccc1N1CCC2(CCN(C(=O)c3ccc(OC(F)(F)F)cc3)CC2)C1=O", "rhesus H3 receptor (Macaca mulatta, UniProt Q865E1)", "pKi", 8.85],
  ["C[C@H]1CCCN1[C@H]1CCN(c2ccc(N3CCCC4(CCN(Cc5ccccc5)CC4)C3=O)c(F)c2)C1", "rhesus H3 receptor (Macaca mulatta, UniProt Q865E1)", "pKi", 10.22],
  ["Cc1cc(N2CC[C@H](N3CCC[C@H]3C)C2)ccc1N1CCC2(CCNCC2)C1=O.Cl [Example 8, Hydrochloride]", "rhesus H3 receptor (Macaca mulatta, UniProt Q865E1)", "pKi", 9.10],
  ["Cc1cc(N2CC[C@H](N3CCC[C@@H]3C)C2)ccc1N1CCC2(CCN(CC3CCCC3)CC2)C1=O", "rhesus H3 receptor (Macaca mulatta, UniProt Q865E1)", "pKi", 9.10],
  ["C[C@H]1CCCN1[C@H]1CCN(c2ccc(N3CCC4(CCN(CC5CCOCC5)CC4)C3=O)c(C(F)(F)F)c2)C1", "rhesus H3 receptor (Macaca mulatta, UniProt Q865E1)", "pKi", 8.38],
  ["C[C@H]1CCCCN1[C@H]1CCN(c2ccc(N3CCC4(CCNCC4)C3=O)cc2)C1.Cl [Example 47, Hydrochloride]", "rhesus H3 receptor (Macaca mulatta, UniProt Q865E1)", "pKi", 9.40],
  ["C[C@H]1CCCN1[C@H]1CCN(c2ccc(N3CCCC4(CCN(C(=O)c5ccc(F)cc5)CC4)C3=O)cc2)C1", "rhesus H3 receptor (Macaca mulatta, UniProt Q865E1)", "pKi", 9.40],
  ["COc1ccc(S(=O)(=O)N2CCC3(CCN(c4ccc(N5CC[C@H](N6CCC[C@@H]6C)C5)cc4C(F)(F)F)C3=O)CC2)cc1", "rhesus H3 receptor (Macaca mulatta, UniProt Q865E1)", "pKi", 7.97],
  ["Cc1cc(N2CC[C@@H](N3CCC[C@@H]3C)C2)ccc1N1CCC2(CCNCC2)C1=O.Cl [Example 9, Hydrochloride]", "rhesus H3 receptor (Macaca mulatta, UniProt Q865E1)", "pKi", 9.22]
]}
